Measured values drawn from patent US20260258084A1 for this set.

assayed.target: human interleukin-23 receptor (recombinant human IL-23R-Fc chimera) (Homo sapiens)
Construct: Fc (IgG Fc fusion)
test.summary: Human ELISA IL23/IL23R (assay for specific human IL23R antagonists)
Type: binding
test.conditions: Table 10; read-out: Human ELISA IL23/IL23R IC50
Method: Antagonism of compounds for human interleukin-23 receptor antagonists, was determined by an ELISA assay. A 384-well plate was coated with 50 μl/well of human IL23 at a final concentration of […] and incubated overnight at 4° C. The wells were washed 3 times with 80 μl wash buffer and blocked with 80 μl blocking buffer for 60 minutes at room temperature and washed again. […] After the wells were washed, bound IL23R-Fc was detected with goat anti-hu-IgG1-HRP antibody. […]
Starred links: 1 amine or outer side, 2 acyl side, 3 side chain; linkers in the order of their positions; H or OH if unused. Positions of bridges follow the written chain, without caps; N, C: chain ends. Non-standard residues stand in square brackets, D forms with d. Residues, ends and D or L forms follow the SMILES beside them. *: point of attachment. X6 = O=C(CCC(=O)[*:3])N[C@@H](CS[*:2])C(=O)[*:1]; Trp(7-Me) = Cc1cccc2c(C[C@H](N)C(=O)O)c[nH]c12; 2Nal = N[C@@H](Cc1ccc2ccccc2c1)C(=O)O; NMe5Ava = CN(CCCCC(=O)[*:2])[*:1]; 3Pal = N[C@@H](Cc1cccnc1)C(=O)O; αMeL = CC(C)C[C@](C)(N)C(=O)O; Me2NCH2CH2 = CN(C)CC*; Sar = CNCC(=O)O
Could you please report measured pIC50 for the items listed next?
Numbers only, as −log10 of the molar value.

Incoming: What pIC50 appears in the records for this molecule with human interleukin-23 receptor (recombinant human IL-23R-Fc chimera) (Homo sapiens)? CC(C)C[C@]1(C)NC(=O)[C@H](Cc2ccc3ccccc3c2)NC(=O)[C@H](Cc2ccc(OCCN(C)C)cc2)NC(=O)[C@@H]2CSSC[C@H](NC(=O)CCCCN(C)C(=O)CC[C@@H](C(=O)N[C@@H](CC(N)=O)C(=O)N[C@@H](CC(N)=O)C(N)=O)NC1=O)C(=O)N[C@@H](CC(N)=O)C(=O)N[C@@H]([C@@H](C)O)C(=O)N[C@@H](Cc1c[nH]c3ccccc13)C(=O)N[C@@H](CCC(N)=O)C(=O)N2 [compound 42] ([NMe5Ava]CNTWQCY(Me2NCH2CH2)[2Nal][αMeL]ENN-NH2; disulfide 2-7; lactam N-11)
Outgoing: 9.49

Others:
Incoming: What pIC50 appears in the records for this molecule with human interleukin-23 receptor (recombinant human IL-23R-Fc chimera) (Homo sapiens)? CC(=O)N[C@H]1CCCCNC(=O)[C@@H]2CSSC[C@H](NC(=O)[C@H](CC(C)C)NC(=O)[C@H](Cc3c[nH]c4c(C)cccc34)NC1=O)C(=O)N[C@@H](Cc1ccc(OCCN(C)C)cc1)C(=O)N[C@@H](Cc1ccc3ccccc3c1)C(=O)N[C@@](C)(CC(C)C)C(=O)N[C@H](C(=O)N[C@@H](CC(N)=O)C(=O)N[C@@H](Cc1cccnc1)C(=O)N(C)CC(N)=O)CCCCNC(=O)CCC(=O)N2 [compound 158] (Ac-K[Trp(7-Me)]LCY(Me2NCH2CH2)[2Nal][αMeL]KN[3Pal][Sar]-NH2; linker 1-4-8 via X6)
Outgoing: 8.71
